# assaySummary: NCI Yeast Anticancer Drug Screen. Data for the mec2-1 strain (AID 157)
# assayConditions: S. cerevisiae mec2-1 strain, hits give high values; at 50.0 µM unless noted
The panel holds about 79,000 compounds, 15% with a hit somewhere; the sample as a whole holds those more often.
measurementType: growth inhibition (%)

{"columns": ["smilesRecord", "readingUnit", "value"],
 "data": [
  ["O=C1c2ccccc2C(=O)c2c1ccc1c3ccccc3n(-c3ccccc3)c21", "%", 4.2],
  ["O=C(Nc1ccc2ccccc2c1)c1ccccc1Cl", "%", -4.4],
  ["CS/C(C)=N/OC(=O)NCCCCNc1ccc(N=[N+]=[N-])cc1", "%", -4.15],
  ["COc1ccc(O)cc1C=O", "%", -7.05],
  ["C=C(COc1ccc(OC)cc1)C(C)(C)C", "%", 13.3],
  ["CCc1n[nH]c(=O)n1NC(=O)c1ccccc1C(=O)O", "%", 11.8]
]}
